test: Inhibition of CD69 in human whole blood preincubated for 30 mins followed by anti-human IgD stimulation and measured after 18 to 22 hrs by flow cytometry
MEASURED_PROPERTY: IC50 (nM)
Write the answer as a number in nM, unit excluded.

1) Cn1cc(Nc2nccc(-c3ccc4c(c3)CCCCC4NC(=O)c3nc(C(C)(C)C)no3)n2)cn1 (centres undefined) ... 220
2) Cn1cc(Nc2nccc(-c3ccc4c(c3)CNCC[C@H]4NC(=O)c3cn(C(C)(C)C)nn3)n2)cn1 ... 1600
3) Cn1cc(Nc2nccc(-c3ccc4c(c3)CCNC[C@H]4NC(=O)c3cn(C(C)(C)C)nn3)n2)cn1 ... 400
4) COCCN1CC[C@@H](NC(=O)c2cn(C(C)(C)C)nn2)c2ccc(-c3ccnc(Nc4cnn(C)c4)n3)cc2C1 ... 800
5) Cc1c(NC(=O)c2cc3c(s2)CCCC3)cccc1-c1cn(C)c(=O)c(Nc2ccc(C3CN(C)CC(=O)N3C)cc2)n1 (centres undefined) ... 1200
6) Cn1cc(Nc2nccc(-c3ccc4c(c3)CCCCC4NC(=O)c3cn(C(C)(C)C)nn3)n2)cn1 (centres undefined) ... 860
7) CN1CCc2cc(-c3ccnc(Nc4cnn(C)c4)n3)ccc2[C@H](NC(=O)c2cn(C(C)(C)C)nn2)C1 ... 700
8) Cn1cc(Nc2nccc(-c3ccc4c(c3)CCCC[C@H]4NC(=O)c3nc(C(C)(C)C)no3)n2)cn1 ... 59
9) Cn1cc(Nc2nccc(-c3ccc4c(c3)CCCC[C@H]4NC(=O)c3cn(C(C)(C)C)nn3)n2)cn1 ... 104
10) Cn1cc(Nc2nccc(-c3ccc4c(c3)CCCC[C@H]4NC(=O)c3nnc(C(C)(C)C)o3)n2)cn1 ... 330

input: Please report IC50 for the following compound: `CC(C)OC1CN(C(=O)N[C@@H]2CCCCc3cc(-c4ccnc(Nc5cnn(C)c5)n4)ccc32)C1`
output: 400

input: Please report IC50 for the following compound: Cn1cc(Nc2nccc(-c3ccc4c(c3)CCCCC4NC(=O)N3CC[C@@H](C(C)(C)C)C3)n2)cn1 (some centres undefined)
output: 40

input: Please report IC50 for the following compound: Cn1cc(Nc2nccc(-c3ccc4c(c3)CCCCC4NC(=O)c3nnc(C(C)(C)C)o3)n2)cn1 (centres undefined)
output: 390
